System: HEK-293T
ASSAY EXPLANATION: Multiplex assay against HEK293T;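 on Population Tubulin-Different-Phenotype (%): share of the cells with healthy nuclei that show this phenotype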
Assay type: toxicity, cell-based
SETUP CONDITIONS: human, 48 h, 10 µM, compound concentration 10 uM, replicate 2
Use 70% as the dividing line for Population Tubulin-Different-Phenotype (%), with the line itself on the MET side and lower values as NOT MET.

-- ask Answer whether Population Tubulin-Different-Phenotype (%) of O=C(Cc1ccc(-c2ccc(OCCN3CCOCC3)cc2)cn1)NCc1ccccc1 is greater than or equal to 70%.
-- reply NOT MET

-- ask Same for O=C(Nc1ccc(-n2nc(-c3cccnc3)cc2C(F)(F)F)cn1)c1ccc(-c2ccccc2)c(F)c1
-- reply NOT MET

-- ask Ok, now S=C(NCCCc1c[nH]cn1)NCCCN(Cc1ccc(Cl)c(Cl)c1)c1ccc(Br)cn1
-- reply MET

-- ask Okay, and Cc1cn(-c2cc(NC(=O)c3ccc(C)c(Nc4nccc(-c5cccnc5)n4)c3)cc(C(F)(F)F)c2)cn1 ?
-- reply MET

-- ask Same thing, different compound: CCCS(=O)(=O)c1nc(NC2CC2)cc(-c2ccc3c(ccn3C3CC(C)(C)NC(C)(C)C3)c2)n1
-- reply MET

-- ask Follow-up item: Cl.O=C(c1ccc(Nc2nccc(-c3cc4ccccc4s3)n2)cc1)N1CCC(N2CCCC2)CC1
-- reply NOT MET

-- ask Also, CCCn1c(=O)c2[nH]c(-c3cnn(Cc4cccc(C(F)(F)F)c4)c3)nc2n(CC)c1=O please.
-- reply NOT MET

-- ask Cool, now COCC(=O)NC/C=C/c1ccc2ncnc(Nc3ccc(Oc4ccc(C)nc4)c(C)c3)c2c1
-- reply MET

-- ask Check CNc1cc(Oc2cc(C(=O)Nc3cc(N4CCN(C)CC4)cc(C(F)(F)F)c3)ccc2C)ncn1 too.
-- reply MET

-- ask Please do the same for CCOC(=O)c1c(C)[nH]c2ccc3c(c12)CN1CCc2cc(OC)ccc2C1O3 (configuration not stated) as well.
-- reply MET

-- ask For CN1C2CCC1CC(OC(c1ccc(F)cc1)c1ccc(F)cc1)C2.Cl (configuration not stated) then?
-- reply MET

-- ask Now the compound CN1CCC(=C2c3ccccc3CC(=O)c3sccc32)CC1.O=C(O)/C=C/C(=O)O [KETOTIFEN FUMARATE]
-- reply MET

-- ask Next up: O=C1N/C(=N/c2ccccc2F)S/C1=C\c1ccc(C(=O)O)cc1
-- reply NOT MET

-- ask How about CCN1CCN(Cc2ccc(Nc3ncc(F)c(-c4cc(F)c5nc(C)n(C(C)C)c5c4)n3)nc2)CC1.CS(=O)(=O)O ?
-- reply MET

-- ask Queued: O=C1NC(=O)C(c2cnc3ccccn23)=C1c1cn2c3c(cc(F)cc13)CN(C(=O)N1CCCCC1)CC2
-- reply MET

-- ask What do we get for CCn1c(=O)c(-c2ccc(-c3cncs3)cc2Cl)cc2cnc(Nc3ccc(N4CCN(C)CC4)cc3)nc21 ?
-- reply NOT MET

====

System: U2OS
ASSAY EXPLANATION: Multiplex assay against U2OS
Type: toxicity, cell-based
SETUP CONDITIONS: human, 12 h, 1 µM, compound concentration 1 uM, replicate 1
Record form. Attribute: Population Healthy Nuclei (%). Fill in for each entry.
Field: numeric (%). Do not append units.

-- ask I'd like to know its Population Healthy Nuclei (%). The molecule in question is S=C(NCCCc1c[nH]cn1)NCCCN(Cc1ccc(Cl)c(Cl)c1)c1ccc(Br)cn1
-- reply 76

-- ask What do we get for CCc1cccc(CC)c1NC(=O)c1nn(C)c2c1CCc1cnc(Nc3ccc(N4CCN(C)CC4)cc3OC)nc1-2 ?
-- reply 7

-- ask Queued: CN[C@@H]1C[C@H]2O[C@@](C)([C@@H]1OC)n1c3ccccc3c3c4c(c5c6ccccc6n2c5c31)C(=O)NC4
-- reply 12

-- ask Please do the same for C=C1/C(=C\C=C2/CCC[C@]3(C)[C@@H]([C@H](C)/C=C/[C@H](C)C(C)C)CC[C@@H]23)C[C@@H](O)C[C@@H]1O as well.
-- reply 82

====

Tested on: HEK-293T
ASSAY EXPLANATION: Multiplex assay against HEK293T
Type: toxicity, cell-based
SETUP CONDITIONS: human, 12 h, 10 µM, compound concentration 10 uM, replicate 1
Would you please tag the item TRUE when its Total Cell Count is 600 or above, and FALSE when it is below?

-- ask Has CCn1c(=O)c(-c2ccc(-c3cncs3)cc2Cl)cc2cnc(Nc3ccc(N4CCN(C)CC4)cc3)nc21 a recorded Total Cell Count greater than or equal to 600?
-- reply TRUE

-- ask Now consider COc1ccc(S(=O)(=O)N(CCO)c2ccccc2CN(C)C/C=C/c2ccc(Cl)cc2)cc1.O=P(O)(O)O .
-- reply TRUE

-- ask Do the same for CNC(=O)c1ccc(Nc2nc(OC3CCCC3)c3c(-c4ccc5nc(C)oc5c4)c[nH]c3n2)c(OC)c1 please
-- reply FALSE

-- ask Could you do the same for Cl.Oc1ccc2c3c1O[C@H]1c4[nH]c5c(c4C[C@@]4(O)[C@@H](C2)N(CC2CC2)CC[C@]314)C[C@@]1(O)[C@H]2Cc3ccc(O)c4c3[C@@]1(CCN2CC1CC1)[C@H]5O4 , please?
-- reply FALSE

-- ask Same thing, different compound: CCN1CCN(c2ccc(Nc3cc(N(C)C(=O)Nc4c(Cl)c(OC)cc(OC)c4Cl)ncn3)cc2)CC1
-- reply FALSE

-- ask # iterate: COC(=N)c1nc2ccc3ncnc(Nc4ccc(OC)cc4F)c3c2s1
-- reply FALSE

-- ask Queued: CCCS(=O)(=O)c1nc(NC2CC2)cc(-c2ccc3c(ccn3C3CC(C)(C)NC(C)(C)C3)c2)n1
-- reply TRUE

====

Tested on: U2OS
ASSAY EXPLANATION: Multiplex assay against U2OS
Format: toxicity, cell-based
SETUP CONDITIONS: human, 48 h, 10 µM, compound concentration 10 uM, replicate 2
VALUE TYPE: Population Apoptotic (%)

-- ask Population Apoptotic (%) lookup needed for O=C1N/C(=N/c2ccccc2F)S/C1=C\c1ccc(C(=O)O)cc1 , thanks.
-- reply 22%

-- ask Same lookup for O=C(Nc1ccc(-c2ccnc(Nc3ccc(N4CCOCC4)cc3)n2)cc1)[C@@H]1CCCN1 , please.
-- reply 60%

-- ask Same for O=C(Nc1ccc(Cl)cc1)Nc1cccc(-c2cccc(N3CCCC3)n2)c1
-- reply 87%

-- ask Next: CCCn1c(=O)c2[nH]c(-c3cnn(Cc4cccc(C(F)(F)F)c4)c3)nc2n(CC)c1=O
-- reply 22%

-- ask Another compound to check: Cl.O=c1c2cccn2c2ccccc2n1CCCN1CCC(c2ccc(Cl)cc2)CC1
-- reply 88%

-- ask Subsequent entry: Cl.O=C(c1ccc(Nc2nccc(-c3cc4ccccc4s3)n2)cc1)N1CCC(N2CCCC2)CC1
-- reply 100%

-- ask Now this one: O=C1NC(=O)C(c2cnc3ccccn23)=C1c1cn2c3c(cc(F)cc13)CN(C(=O)N1CCCCC1)CC2
-- reply 83%

-- ask Again, but for CN1C2CCC1CC(OC(c1ccc(F)cc1)c1ccc(F)cc1)C2.Cl (configuration not stated)
-- reply 77%

-- ask Another compound to check: CCOC(=O)c1c(C)[nH]c2ccc3c(c12)CN1CCc2cc(OC)ccc2C1O3 (configuration not stated)
-- reply 84%

-- ask Try CN1CCC(=C2c3ccccc3CC(=O)c3sccc32)CC1.O=C(O)/C=C/C(=O)O [KETOTIFEN FUMARATE] next.
-- reply 57%

-- ask Likewise for C=C1/C(=C\C=C2/CCC[C@]3(C)[C@@H]([C@H](C)/C=C/[C@H](C)C(C)C)CC[C@@H]23)C[C@@H](O)C[C@@H]1O ?
-- reply 22%

-- ask O=C(Nc1ccc(-n2nc(-c3cccnc3)cc2C(F)(F)F)cn1)c1ccc(-c2ccccc2)c(F)c1 ?
-- reply 11%

-- ask Same question, CN1CCN(C(=O)C(C)(C)c2ccc(C(=O)Nc3cn4cc(-c5ccncc5)ccc4n3)cc2)CC1 this time
-- reply 61%

-- ask One more compound: Cc1cn(-c2cc(NC(=O)c3ccc(C)c(Nc4nccc(-c5cccnc5)n4)c3)cc(C(F)(F)F)c2)cn1
-- reply 11%

-- ask What would you report for S=C(NCCCc1c[nH]cn1)NCCCN(Cc1ccc(Cl)c(Cl)c1)c1ccc(Br)cn1 ?
-- reply 100%

-- ask Param item: CCn1c(=O)c(-c2ccc(-c3cncs3)cc2Cl)cc2cnc(Nc3ccc(N4CCN(C)CC4)cc3)nc21
-- reply 57%

-- ask Same for CNc1cc(Oc2cc(C(=O)Nc3cc(N4CCN(C)CC4)cc(C(F)(F)F)c3)ccc2C)ncn1
-- reply 47%

====

Tested on: U2OS
ASSAY EXPLANATION: Multiplex assay against U2OS
Format: toxicity, cell-based
SETUP CONDITIONS: human, 12 h, 10 µM, compound concentration 10 uM, replicate 1
VALUE TYPE: Population Normal (%)
Give your result in % as a bare value.

-- ask What Population Normal (%) appears in the records for this molecule with U2OS? O=C1N/C(=N/c2ccccc2F)S/C1=C\c1ccc(C(=O)O)cc1
-- reply 94

-- ask Now give it for CCN1CCN(c2ccc(Nc3cc(N(C)C(=O)Nc4c(Cl)c(OC)cc(OC)c4Cl)ncn3)cc2)CC1 [INFIGRATINIB] too.
-- reply 93

-- ask Same question for CCN1CCN(Cc2ccc(Nc3ncc(F)c(-c4cc(F)c5nc(C)n(C(C)C)c5c4)n3)nc2)CC1.CS(=O)(=O)O please.
-- reply 94

-- ask Further, for O=C(Nc1cccnn1)N1CCC(=Cc2cccc(Oc3ccc(C(F)(F)F)cn3)c2)CC1 ?
-- reply 96
